- MEASUREMENT_PROTOCOL: Caspase-3/7 induction in CHO-K1 cells by small molecules, qHTS cell viability counter screen (AID 1346979); further: nearly all actives have a fitted effect of over 35% in size
- ASSAY_SETUP: CellTiter-Fluor fluorescence, 17 h; series mostly up to 92.4 µM
Inconclusive results are not listed. Active and inactive are the calls of the source. The call rests on the fitted dose curve; in most records, active means well fitted cell-killing curve with a large enough effect in the repeat runs; inconclusive means weak or mixed curves, or effect the other way; inactive means no such curve, though single readings can be large or run the other way.
Outcomes: active, inactive

- COMPOUND: "CCCCC(=O)OCC(=O)[C@H]1[C@H](C)C[C@H]2[C@@H]3C[C@H](F)C4=CC(=O)C=C[C@]4(C)[C@@]3(F)[C@@H](O)C[C@@]21C"
  CATEGORY: "inactive"
- COMPOUND: "COc1cc(Cl)c(OC)cc1N"
  CATEGORY: "inactive"
- COMPOUND: "CC(C)Nc1ccc(NC(C)C)c2c1C(=O)c1ccccc1C2=O"
  CATEGORY: "active"
- COMPOUND: "CCC(C)(C)CC"
  CATEGORY: "inactive"
- COMPOUND: "CCN(CC)CCOC(=O)C(Cc1cccc2ccccc12)CC1CCCO1 (stereo not drawn)"
  CATEGORY: "inactive"
- COMPOUND: "CCO[C@H](Cc1ccc(OCCc2ccc(OS(C)(=O)=O)cc2)cc1)C(=O)O"
  CATEGORY: "inactive"
- COMPOUND: "C[Si](C)(CCCN)O[Si](C)(C)CCCN"
  CATEGORY: "inactive"
- COMPOUND: "Brc1c2ccccc2cc2ccccc12"
  CATEGORY: "inactive"
- COMPOUND: "CC(=O)[O][Al]"
  CATEGORY: "inactive"
- COMPOUND: "c1ccc(C(O[C@H]2CCCN(CCc3ccc4c(c3)OCO4)C2)c2ccccc2)cc1"
  CATEGORY: "inactive"
- COMPOUND: "CCCCC(CC)CN1C(=O)C2C3C=CC(C3)C2C1=O (stereo not drawn)"
  CATEGORY: "inactive"
- COMPOUND: "C=C(C)C(=O)OCC"
  CATEGORY: "inactive"
- COMPOUND: "CCC(C)O (stereo not drawn)"
  CATEGORY: "inactive"
